Tested On: Alpha-bungarotoxin (Bungarus multicinctus) (UniProt P60615)
Sequence (P60615 whole entry, looked up): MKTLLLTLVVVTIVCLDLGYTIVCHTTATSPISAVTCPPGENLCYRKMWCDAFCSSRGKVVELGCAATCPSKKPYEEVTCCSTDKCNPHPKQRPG
Experiment Summary: compounds binding labelled alpha-BTX control protein – biochemical, small-molecule microarray, Alexa647 label, 635/667 nm fluorescence, artefact control for SMM control protein annotation, profiling panel (AID 1117)
Assay Context: alpha-BTX-A647 binding fluorescence, higher = more signal
Result Type: composite z-score
# print the numeric value only

The examples below pair each entry with its known result.
# Compound, Measurement
data = [
    ("COc1cc(C(O)C2C=CC3C(=O)N(C)C(=O)C3N2NC(=O)OC(C)(C)C)cc(OC)c1OC (configuration not stated)", 0.312),
    ("C[C@@]1([C@@H](NC(=O)c2cccs2)c2ccc(-c3ccccc3)cc2)C[C@H]1C1CCCCC1", -0.344),
    ("C=CCOc1ccc([C@@H]2CC=C(C(=O)OCC)[C@H](c3cccc(Br)c3)N2S(=O)(=O)c2ccc(C)cc2)cc1", 1.2),
    ("COCCOC(=O)N1C(=O)[C@@]2(c3cc(C#CCCO)ccc31)[C@H](C(=O)NC[C@H](O)c1ccccc1)[C@H]1C(=O)O[C@H](c3ccccc3)[C@H](c3ccccc3)N1[C@@H]2c1ccccc1OCCO", 0.784),
    ("NCCCCCCNC(=O)[C@H]1C[C@H]2C(=O)N3CCC[C@H]3C(=O)N2[C@H]1c1ccc(O)cc1", 1.05),
]

// COCC1=C([C@H](O)CCc2ccccc2)[C@H](CO)[C@@H]2C(=O)N(C)C(=O)[C@@H]2C1 : composite z-score value = -0.152

// COCCCNC(=O)[C@]1(Cc2ccccc2)N=C(c2ccc(OCCCO)cc2)O[C@@H]1c1ccccc1N=[N+]=[N-] : composite z-score value = 0.974

Origin of the recorded values: PubChem BioAssay
